Measured HTLV_LTR transactiv. by item
- Test system: HTLV-1 LTR promoter transactivation by HTLV-1 Tax
- ASSAY DETAILS: Transactivation assay, HTLV-1 LTR luciferase reporter with HTLV-1 Tax
- Assay type: cell-based
- MEASUREMENT PARAMETERS: HEK293 cells co-transfected with pHTLV1LTR-Luc, HTLV-1 Tax and the human ORF; relative luciferase activity 24 h post-transfection; positive if >=2 or <=0.5 and p<0.05
# number only, unit fold change dropped from output

# count of solved cases: 3
[in] Suppose we examine the molecule CCDC24: human host interactor protein, Gene ID 149473, expressed from transfected ORF vector (protein) MLRHSPSLWELVEEHVPLRERREVKRILGEAAVDLSLELRAEVAMLRALLQEARSSQAPSSRPISDPSSLLAPPPLLKDLLRQELRQLLQGLRHKAICEGRDQAQAWVQYSPRVLHFALEEPRCDLPEQEIFQMRGGGPSSGHRDLSIIKDQLNVSNIDQVARHLRGLLEEECHTLEREILILQRCLEEEYLRPCHPSEAALEPTLAELKEQKKAMEQELQASVGPSCVSPNHRQRPLGSSTQGLRPPLPLCGVAPLQCCLPAPPLEPYLRPRGQSATHRWGRQLQCSPREGPASTPMSSAAPQAPA ; what HTLV_LTR transactiv. value has been reported?
[out] 2.88

[in] Consider next the molecule DGCR6L: human host interactor protein, Gene ID 85359, expressed from transfected ORF vector (protein) MERYAAALEEVADGARQQERHYQLLSALQSLVKELPSSFQQRLSYTTLSDLALALLDGTVFEIVQGLLEIQHLTEKSLYNQRLRLQNEHRVLRQALRQKHQEAQQACRPHNLPVVQAAQQRELEAVEHRIREEQRAMDQKIILELDRKVADQQSTLEKAGVAGFYVTTNPQELMLQMNLLELIRKLQQRGCRAGNAALGLGGPWQSPAAQCDQKGSPVPP in the same way.
[out] 0.24

[in] Consider next the molecule DIPA: human host interactor protein, Gene ID 11007, expressed from transfected ORF vector (protein) MEAEAGGLEELTDEEMAALGKEELVRRLRREEAARLAALVQRGRLMQEVNRQLQGHLGEIRELKQLNRRLQAENRELRDLCCFLDSERQRGRRAARQWQLFGTQASRAVREDLGGCWQKLAELEGRQEELLRENLALKELCLALGEEWGPRGGPSGAGGSGAGPAPELALPPCGPRDLGDGSSSTGSVGSPDQLPLACSPDD in the same way.
[out] 0.28

# evaluate next
[in] Suppose we examine the molecule FLJ10726: human host interactor protein, Gene ID 55216, expressed from transfected ORF vector (protein) MSRIPLGKVLLRNVIRHTDAHNKIQEESDMWKIRELEKQMEDAYRGTKRKMLPSSSSRMRSDGFDEESQRYYWRPKNEISGTLEDDFLKAKSWNKKFYDYEANMPDRWGHSGYKELYPEEFETDSDQQDITNGKKTSPQVKSSTHESRKHKKSKKSHKKKQKKRSHKKQKKSKKEATDITADSSSEFSEETGASGTRKGKQPHKRKKKSRKKSLKKPALFLEAESNTSHSDDSASSSSEESEERDTKKTKRKKREKKAHTSVANNEIQERTNKRTNWKVATDERSAESSEDD ; what HTLV_LTR transactiv. value has been reported?
[out] 0.19

Every entry's value here was drawn from patent US20120090043A1.
